# Target entity: UniProt:P43116
# Method notes: Competition binding, [3H]PGE2, HEK 293 cells stably expressing human EP2 receptors
# Design: expressed in transfected cells; host or cells: HEK 293 cells (membranes or whole cells)
# Test context: Table 1, second part; read-out: hEP2 Ki
Metric name: pKi
Entry type: numeric. Quantity: pKi, the -log10 of concentration in molar units.

## Input Look at this compound and give its reported pKi. "O=Cc1cccc(OC[C@@H]2[C@@H](C/C=C\CCCC(=O)O)[C@H](Cl)C[C@H]2O)c1"
## Output 6.54

## Input Look at this compound and give its reported pKi. "O=C(O)CCC/C=C\C[C@@H]1[C@@H](COc2cc(Cl)cc(Cl)c2)[C@H](O)C[C@H]1Cl"
## Output 7.92

* * *

# Target entity: hFP (Homo sapiens)
# Construct: expressed in transfected cells; host or cells: HEK-293(EBNA) cells
# Sequence (P43088 whole entry): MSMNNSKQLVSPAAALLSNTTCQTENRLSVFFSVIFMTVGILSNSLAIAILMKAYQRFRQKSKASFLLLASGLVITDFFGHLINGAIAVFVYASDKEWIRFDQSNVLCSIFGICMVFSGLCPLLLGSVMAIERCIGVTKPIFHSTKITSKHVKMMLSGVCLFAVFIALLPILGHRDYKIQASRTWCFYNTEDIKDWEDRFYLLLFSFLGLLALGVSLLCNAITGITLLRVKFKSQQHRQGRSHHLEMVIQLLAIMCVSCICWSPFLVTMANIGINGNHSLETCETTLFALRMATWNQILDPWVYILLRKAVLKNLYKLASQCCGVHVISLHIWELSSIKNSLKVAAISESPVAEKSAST
# Method notes: FLIPR calcium signal, HEK-293(EBNA) cells
# Assay type: cell-based
# Test context: Table 1, first part; triplicate; read-out: functional data (EC50) hFP
Metric name: EC50

## Input Look at this molecule and give its reported EC50. "COC(=O)CCC/C=C\C[C@@H]1[C@@H](COc2cc(Cl)cc(Cl)c2)[C@H](O)C[C@H]1Cl"
## Output > 10 µM

* * *

# Target entity: hEP3A/Gqi5 (Homo sapiens, UniProt P43115)
# Construct: expressed in transfected cells; host or cells: HEK-293(EBNA) cells
# Sequence (P43115 whole entry): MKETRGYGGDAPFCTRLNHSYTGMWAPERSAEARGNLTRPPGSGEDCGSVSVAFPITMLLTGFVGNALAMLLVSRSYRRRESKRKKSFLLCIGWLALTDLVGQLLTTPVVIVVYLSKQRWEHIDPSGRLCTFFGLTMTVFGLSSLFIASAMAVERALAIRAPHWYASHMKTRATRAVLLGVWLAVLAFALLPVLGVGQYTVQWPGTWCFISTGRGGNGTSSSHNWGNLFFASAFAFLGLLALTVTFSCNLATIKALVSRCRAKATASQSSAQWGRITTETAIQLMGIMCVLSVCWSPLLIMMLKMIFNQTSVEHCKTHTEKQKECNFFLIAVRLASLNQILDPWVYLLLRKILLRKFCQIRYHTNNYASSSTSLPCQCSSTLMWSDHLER
# Method notes: FLIPR calcium signal, HEK-293(EBNA) cells
# Type: cell-based
# Test context: Table 1, second part; quantity not given, values match functional data (EC50) of first part; read-out: Other Receptors hEP3
EC50 vs 4 µM: less than gives yes; not less than gives no.

## Input Say whether its EC50 is strictly beneath 4 µM. Entry: "O=C(O)CCCCCC[C@H]1C(=O)CC[C@@H]1COc1ccccc1"
## Output yes

## Input Say whether its EC50 is strictly beneath 4 µM. Entry: "O=C(O)CCC/C=C\C[C@@H]1[C@@H](COc2cc(C(F)(F)F)cc(Cl)c2F)[C@H](O)C[C@H]1Cl"
## Output yes

## Input Say whether its EC50 is strictly beneath 4 µM. Entry: "COC(=O)CCC/C=C\C[C@@H]1[C@@H](COc2cc(Cl)cc(Cl)c2)[C@H](O)C[C@H]1Cl"
## Output no

## Input Say whether its EC50 is strictly beneath 4 µM. Entry: "O=C(O)CCC/C=C\C[C@@H]1[C@@H](COc2ccccc2)[C@H](O)C[C@H]1Cl"
## Output no

## Input Say whether its EC50 is strictly beneath 4 µM. Entry: "O=C(O)CCC/C=C\C[C@@H]1[C@@H](COc2cc(Cl)cc(Cl)c2)[C@H](O)C[C@H]1Cl"
## Output yes

## Input Say whether its EC50 is strictly beneath 4 µM. Entry: "O=C(O)CCCCCC[C@@H]1[C@@H](COc2ccccc2)[C@H](O)C[C@H]1Cl"
## Output yes

## Input Say whether its EC50 is strictly beneath 4 µM. Entry: "O=C(O)CCCCCC[C@@H]1[C@@H](COc2cc(Cl)cc(Cl)c2)[C@H](O)C[C@H]1Cl"
## Output yes

## Input Say whether its EC50 is strictly beneath 4 µM. Entry: "COC(=O)CCCCCC[C@@H]1[C@@H](COc2cc(Cl)cc(Cl)c2)[C@H](O)C[C@H]1Cl"
## Output no

* * *

Kindly supply the reported pEC50 values for the records listed here.
# Target entity: hEP1 (Homo sapiens, UniProt P34995)
# Construct: expressed in transfected cells; host or cells: HEK-293(EBNA) cells
# Sequence (P34995 whole entry): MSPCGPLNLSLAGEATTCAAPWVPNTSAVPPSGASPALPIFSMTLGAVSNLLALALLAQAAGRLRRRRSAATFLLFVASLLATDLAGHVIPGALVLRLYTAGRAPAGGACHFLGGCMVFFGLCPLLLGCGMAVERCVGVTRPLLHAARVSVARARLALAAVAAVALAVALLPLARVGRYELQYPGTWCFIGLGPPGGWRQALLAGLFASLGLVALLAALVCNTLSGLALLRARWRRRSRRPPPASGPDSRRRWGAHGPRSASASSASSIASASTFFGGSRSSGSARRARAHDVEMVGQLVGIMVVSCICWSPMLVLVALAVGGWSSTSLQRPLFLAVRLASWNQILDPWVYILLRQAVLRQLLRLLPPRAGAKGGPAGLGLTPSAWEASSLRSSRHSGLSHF
# Method notes: FLIPR calcium signal, HEK-293(EBNA) cells
# Format: cell-based
# Test context: Table 1, first part; triplicate; read-out: functional data (EC50) hEP1
pEC50: −log10 of the molar value.

## Input Look at this compound and give its reported pEC50. "COC(=O)CCCCCC[C@@H]1[C@@H](COc2cc(Cl)cc(Cl)c2)[C@H](O)C[C@H]1Cl"
## Output < 5.00

## Input Look at this compound and give its reported pEC50. "O=C(O)CCC/C=C\C[C@@H]1[C@@H](COc2cc(Cl)cc(Cl)c2)[C@H](O)C[C@H]1Cl"
## Output < 5.00

## Input Look at this compound and give its reported pEC50. "O=C(O)CCCCCC[C@@H]1[C@@H](COc2ccccc2)[C@H](O)C[C@H]1Cl"
## Output < 5.00

## Input Look at this compound and give its reported pEC50. "O=C(O)CCCCCC[C@@H]1[C@@H](COc2cc(Cl)cc(Cl)c2)[C@H](O)C[C@H]1Cl"
## Output < 5.00

## Input Look at this compound and give its reported pEC50. "O=C(O)CCC/C=C\C[C@@H]1[C@@H](COc2ccccc2)[C@H](O)C[C@H]1Cl"
## Output < 5.00

* * *

# Target entity: hEP4/Gqs5 (Homo sapiens, UniProt P35408)
# Construct: expressed in transfected cells; host or cells: HEK-293(EBNA) cells
# Sequence (P35408 whole entry): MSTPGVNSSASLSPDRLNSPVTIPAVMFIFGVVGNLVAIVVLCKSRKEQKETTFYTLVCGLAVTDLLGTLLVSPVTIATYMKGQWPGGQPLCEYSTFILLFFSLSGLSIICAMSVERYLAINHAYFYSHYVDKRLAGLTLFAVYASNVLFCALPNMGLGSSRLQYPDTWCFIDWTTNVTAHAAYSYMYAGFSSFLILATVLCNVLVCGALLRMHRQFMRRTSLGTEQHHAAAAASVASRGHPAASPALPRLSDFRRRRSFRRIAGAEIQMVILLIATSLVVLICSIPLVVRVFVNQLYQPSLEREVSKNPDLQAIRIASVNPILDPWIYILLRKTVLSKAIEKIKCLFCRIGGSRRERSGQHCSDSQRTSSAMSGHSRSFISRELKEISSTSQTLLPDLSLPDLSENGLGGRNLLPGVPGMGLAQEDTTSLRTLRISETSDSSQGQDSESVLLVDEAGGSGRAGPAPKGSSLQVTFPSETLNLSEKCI
# Method notes: FLIPR calcium signal, HEK-293(EBNA) cells
# Assay type: cell-based
# Test context: Table 1, first part; triplicate; read-out: functional data (EC50) hEP4
Metric name: pEC50
Entry type: numeric. Quantity: pEC50, the -log10 of concentration in molar units.

## Input Look at this molecule and give its reported pEC50. "O=C(O)CCC/C=C\C[C@@H]1[C@@H](COc2cc(Cl)cc(Cl)c2)[C@H](O)C[C@H]1Cl"
## Output 7.32

## Input Look at this molecule and give its reported pEC50. "COC(=O)CCCCCC[C@@H]1[C@@H](COc2ccccc2)[C@H](O)C[C@H]1Cl"
## Output 5.43

## Input Look at this molecule and give its reported pEC50. "O=C(O)CCCCCC[C@H]1C(=O)CC[C@@H]1COc1ccccc1"
## Output 5.10

## Input Look at this molecule and give its reported pEC50. "O=C(O)CCCCCC[C@@H]1[C@@H](COc2ccccc2)[C@H](O)C[C@H]1Cl"
## Output 5.14

## Input Look at this molecule and give its reported pEC50. "O=C(O)CCC/C=C\C[C@@H]1[C@@H](COc2ccccc2)[C@H](O)C[C@H]1Cl"
## Output 5.49

## Input Look at this molecule and give its reported pEC50. "O=C(O)CCCCCC[C@@H]1[C@@H](COc2cc(Cl)cc(Cl)c2)[C@H](O)C[C@H]1Cl"
## Output 6.82

* * *

Kindly supply the reported pEC50 values for the records listed here.
# Target entity: hEP2/Gqs5 (Homo sapiens)
# Construct: expressed in transfected cells; host or cells: HEK-293(EBNA) cells
# Sequence (P43116 whole entry): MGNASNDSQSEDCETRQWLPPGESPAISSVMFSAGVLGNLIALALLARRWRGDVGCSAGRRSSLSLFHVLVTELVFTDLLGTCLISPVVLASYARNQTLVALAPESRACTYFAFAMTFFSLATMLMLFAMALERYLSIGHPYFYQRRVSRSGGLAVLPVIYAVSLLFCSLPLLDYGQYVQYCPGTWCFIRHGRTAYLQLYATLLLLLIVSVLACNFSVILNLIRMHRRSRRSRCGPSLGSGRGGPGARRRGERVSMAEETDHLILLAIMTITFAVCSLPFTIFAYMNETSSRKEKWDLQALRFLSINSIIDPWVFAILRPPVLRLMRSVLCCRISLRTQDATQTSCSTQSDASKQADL
# Method notes: FLIPR calcium signal, HEK-293(EBNA) cells
# Type: cell-based
# Test context: Table 1, first part; triplicate; read-out: functional data (EC50) hEP2
Entry type: numeric. Quantity: pEC50, the -log10 of concentration in molar units.

## Input Look at this molecule and give its reported pEC50. O=C(O)CCCCCC[C@H]1C(=O)CC[C@@H]1COc1ccccc1 [Example 6]
## Output 6.14

## Input Look at this molecule and give its reported pEC50. O=C(O)CCC/C=C\C[C@@H]1[C@@H](COc2ccccc2)[C@H](O)C[C@H]1Cl [Example 8]
## Output 6.64

## Input Look at this molecule and give its reported pEC50. O=C(O)CCC/C=C\C[C@@H]1[C@@H](COc2cc(Cl)cc(Cl)c2)[C@H](O)C[C@H]1Cl [Example 12]
## Output 9.10

## Input Look at this molecule and give its reported pEC50. COC(=O)CCCCCC[C@@H]1[C@@H](COc2cc(Cl)cc(Cl)c2)[C@H](O)C[C@H]1Cl [Example 13]
## Output 5.78

## Input Look at this molecule and give its reported pEC50. O=C(O)CCCCCC[C@@H]1[C@@H](COc2ccccc2)[C@H](O)C[C@H]1Cl [Example 10]
## Output 6.91

## Input Look at this molecule and give its reported pEC50. COC(=O)CCC/C=C\C[C@@H]1[C@@H](COc2cc(Cl)cc(Cl)c2)[C@H](O)C[C@H]1Cl [Example 11]
## Output 6.21

* * *

Kindly supply the reported EC50 values for the records listed here.
# Target entity: hEP2 (Homo sapiens)
# Method notes: hEP2 cAMP functional assay
# Test context: Table 1, second part
The response must be a number in nM with no trailing unit.

## Input Look at this compound and give its reported EC50. O=C(O)CCCCCC[C@@H]1[C@@H](COc2ccccc2)[C@H](O)C[C@H]1Cl [Example 10]
## Output 47

## Input Look at this compound and give its reported EC50. O=C(O)CCCCCC[C@@H]1[C@@H](COc2cc(Cl)cc(Cl)c2)[C@H](O)C[C@H]1Cl [Example 14]
## Output 14

## Input Look at this compound and give its reported EC50. O=Cc1cccc(OC[C@@H]2[C@@H](C/C=C\CCCC(=O)O)[C@H](Cl)C[C@H]2O)c1 [Example 48]
## Output 41

## Input Look at this compound and give its reported EC50. O=C(O)CCCCCC[C@H]1C(=O)CC[C@@H]1COc1ccccc1 [Example 6]
## Output 234

## Input Look at this compound and give its reported EC50. O=C(O)CCC/C=C\C[C@@H]1[C@@H](COc2cc(Cl)cc(Cl)c2)[C@H](O)C[C@H]1Cl [Example 12]
## Output 0.9
